Form field: TGI (one value per entry).
tested on: SF-295 CNS; experiment: NCI tumour cell line growth inhibition, 48 h

Worked examples follow.
| Compound | Target Under Test | TGI |
| --- | --- | --- |
| CCc1cccc(C)c1NC(=O)c1sc2nc3c(cc2c1N)C(=O)CCC3 | SF-295 CNS | > 100 µM |
| CC1(C)OC(=S)N(c2ccccc2)C12C=Cc1ccccc1O2 (stereo not drawn) | SF-295 CNS | > 100 µM |

Consider now this further compound.
Requested field: TGI. Item: COc1ccc(N2C(=O)/C(=C\c3cc(OC)c(OC)c(OC)c3)SC2c2ccccc2)cc1 (stereo not drawn)
> 100 µM
